- protocol.description: Pharmacokinetics of artesunate (AS) in plasma after multiple intravenous doses, compartmental analysis (Phase 1b)
- Type: in vivo, human
- measurement.setup: human, plasma, iv, day 3; 2-8 mg/kg iv; read-out: Mean AUC of AS, range over doses
observed.property: AUC

**Q:** Give me measured AUC, please, for this compound: C[C@H]1[C@H](OC(=O)CCC(=O)O)O[C@@H]2O[C@@]3(C)CC[C@H]4[C@H](C)CC[C@@H]1[C@@]24OO3
**A:** 1270 to 5920 ng·h/mL

---

- protocol.description: Pharmacokinetics of artesunate (AS) in plasma after multiple intravenous doses, compartmental analysis (Phase 1b)
- Assay type: in vivo, human
- measurement.setup: human, plasma, iv, 4 mg/kg, Day 1; AS 4 mg/kg iv daily for 3 days, 2 min infusion; mean (CV%), n = 6; CA
observed.property: AUC(0-inf)
Please provide the amount together with its unit, number first.

**Q:** Specify AUC(0-inf) for C[C@H]1[C@H](OC(=O)CCC(=O)O)O[C@@H]2O[C@@]3(C)CC[C@H]4[C@H](C)CC[C@@H]1[C@@]24OO3 and stop.
**A:** 4640 ng·h/mL
